B1: TPR t1 (parent)
chain: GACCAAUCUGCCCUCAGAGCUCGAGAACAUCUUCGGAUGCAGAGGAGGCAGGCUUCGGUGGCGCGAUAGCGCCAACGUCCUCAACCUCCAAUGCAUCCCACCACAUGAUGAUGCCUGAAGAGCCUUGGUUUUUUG

Variants of: B1
protocol.notes: polymerase ribozyme fitness, log enrichment relative to wild type (log ratio); higher = more active; in vitro selection for triplet polymerase activity
Label rule, in plain words: polymerase ribozyme fitness (log ratio) of -2 and up is Fulfilled, under -2 is Not fulfilled.

Observe how each entry below is paired with its result.
C40A G48A U55A G60A A95G G120C ... Fulfilled
G93C U129A ... Fulfilled
A2C C62U A75U G110A ... Not fulfilled
U55G C73G ... Fulfilled
G36C C86A ... Fulfilled

[ask] Can C3A U92A C114U be said to have polymerase ribozyme fitness (log ratio) at or above -2?
[reply] Not fulfilled

[ask] // inclusive: polymerase ribozyme fitness (log ratio) at least -2? input: C12A A29U C49U A74G C123A U131A
[reply] Fulfilled

[ask] Please check the record G52U G93C G120A G135C and state if its polymerase ribozyme fitness (log ratio) is at or above -2.
[reply] Fulfilled

[ask] Test whether the variant A6G G45C G63C U81C records polymerase ribozyme fitness (log ratio) of -2 or higher.
[reply] Fulfilled

[ask] Does polymerase ribozyme fitness (log ratio) meet or surpass -2 for A50G U112C U116A ?
[reply] Fulfilled

[ask] For this variant, is measured polymerase ribozyme fitness (log ratio) -2 or higher? C56G G77C U130G
[reply] Fulfilled

[ask] // inclusive: polymerase ribozyme fitness (log ratio) at least -2? input: C20U A43G U112C
[reply] Fulfilled

[ask] Determine whether this variant has polymerase ribozyme fitness (log ratio) no lower than -2: G63A A119U
[reply] Fulfilled

[ask] Is it the case that C11U G71A U133G has polymerase ribozyme fitness (log ratio) reaching or exceeding -2?
[reply] Fulfilled

[ask] Threshold query (polymerase ribozyme fitness (log ratio) >= -2) on A5C U7C A29G G71A C89U G93C
[reply] Not fulfilled

[ask] Reported polymerase ribozyme fitness (log ratio) reaches at least -2 for G69A G77C C94U ?
[reply] Not fulfilled

[ask] Does the variant C8A G47C U133G have recorded polymerase ribozyme fitness (log ratio) that is -2 or more?
[reply] Fulfilled

[ask] In plain terms: is recorded polymerase ribozyme fitness (log ratio) at least -2 for G10C C49A G71A ?
[reply] Not fulfilled

[ask] Reported polymerase ribozyme fitness (log ratio) reaches at least -2 for G44C C73U ?
[reply] Fulfilled

[ask] Check this variant for polymerase ribozyme fitness (log ratio) at or above -2: C49U G117C
[reply] Not fulfilled

[ask] Check the entry C12A G19C A91U U126G : does polymerase ribozyme fitness (log ratio) equal or exceed -2?
[reply] Not fulfilled
